Let's look at some compounds and their measured pIC50.
biological target: Transient receptor potential cation channel subfamily V member 1 (Rattus norvegicus, UniProt O35433); experiment: Antagonist activity at rat TRPV1 expressed in CHO cells assessed as inhibition of capsaicin-induced calcium influx; type: functional, cell-based
Sequence (O35433 whole entry): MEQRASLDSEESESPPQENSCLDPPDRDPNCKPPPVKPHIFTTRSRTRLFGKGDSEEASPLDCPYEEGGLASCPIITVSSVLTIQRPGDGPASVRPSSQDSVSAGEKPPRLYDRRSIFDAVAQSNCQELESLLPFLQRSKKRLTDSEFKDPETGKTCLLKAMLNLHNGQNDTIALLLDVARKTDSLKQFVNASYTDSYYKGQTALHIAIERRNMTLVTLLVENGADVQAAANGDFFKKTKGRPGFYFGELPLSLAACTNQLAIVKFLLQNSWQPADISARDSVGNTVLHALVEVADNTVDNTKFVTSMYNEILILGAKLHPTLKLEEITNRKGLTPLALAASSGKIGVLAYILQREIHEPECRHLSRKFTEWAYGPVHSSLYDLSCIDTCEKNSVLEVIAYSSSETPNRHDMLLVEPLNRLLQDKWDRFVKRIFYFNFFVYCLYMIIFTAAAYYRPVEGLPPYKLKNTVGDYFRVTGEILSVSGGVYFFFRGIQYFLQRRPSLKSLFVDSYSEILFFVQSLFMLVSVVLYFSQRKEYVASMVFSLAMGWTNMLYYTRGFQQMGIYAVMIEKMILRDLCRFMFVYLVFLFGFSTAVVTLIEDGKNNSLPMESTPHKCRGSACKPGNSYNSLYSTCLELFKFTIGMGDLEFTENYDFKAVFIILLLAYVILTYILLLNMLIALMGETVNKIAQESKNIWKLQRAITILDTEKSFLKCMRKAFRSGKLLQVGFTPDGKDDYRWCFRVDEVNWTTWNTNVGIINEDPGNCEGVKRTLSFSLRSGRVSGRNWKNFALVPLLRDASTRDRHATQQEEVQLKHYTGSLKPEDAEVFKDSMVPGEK
pIC50: −log10 of the molar value.

Worked cases, answers included:
| Sample smiles | pIC50 |
| --- | --- |
| CC(C)(C)c1ccc(-c2cnnc(Nc3ccc4c(c3)OCCO4)c2)cc1 | 6.11 |
| CC(C)(C)c1ccc(/C=C2\CCCN(c3ccc4c(c3)OCCO4)C2=O)cc1 | < 5.40 |
| CC(C)(C)c1ccc(-c2ccnc(Nc3ccc4c(c3)OCCO4)n2)cc1 | < 5.40 |

Please look at the following compound next.
Input: Supply measured pIC50 of "CN(c1ccc2c(c1)OCCO2)c1cc(-c2ccc(C(C)(C)C)cc2)ncn1" in your reply.
Output: < 5.40

----------
biological target: Transient receptor potential cation channel subfamily V member 1 (Rattus norvegicus, UniProt O35433); assay: Antagonist activity at rat TRPV1 expressed in CHO cells assessed as inhibition of capsaicin-induced calcium influx; assay type: functional, cell-based
pIC50: −log10 of the molar value.
Property measured: pIC50

Please review the entries below; each comes with its answer.
| Sample smiles | Property measured | Observed measurement |
| --- | --- | --- |
| CC(C)(C)c1ccc(-c2cncc(Nc3ccc4c(c3)OCCO4)c2)cc1 | pIC50 | 5.92 |
| CC(C)(C)c1ccc(-c2ncnc(Nc3ccc4c(c3)OCCO4)n2)cc1 | pIC50 | 6.12 |

I. CC(C)(C)c1ccc(-c2cc(Cc3ccc4c(c3)OCCO4)ncn2)cc1
II. CC(C)(C)c1ccc(-c2ccnc(Nc3ccc4c(c3)OCCO4)c2)cc1
Input: Response body: label of entry with the larger pIC50; valid values I , II . Kindly give the label for the entry you pick.
Output: II
(II: 6.64, I: 6.04)

----------
biological target: Transient receptor potential cation channel subfamily V member 1 (Rattus norvegicus, UniProt O35433); experiment: Antagonist activity at rat TRPV1 expressed in CHO cells assessed as inhibition of capsaicin-induced calcium influx; assay type: functional, cell-based
Property measured: IC50 (nM)

| Sample smiles | IC50 [nM] |
| --- | --- |
| CC(C)(C)c1ccc(-c2cc(Nc3ccc4c(c3)OCCO4)ncn2)cc1 | 120 |

1. CC(C)(C)c1ccc(-c2cc(Nc3ccc4c(c3)OCCO4)cnn2)cc1
2. FC(F)(F)c1ccc(-c2cc(Nc3ccc4c(c3)OCCO4)ncn2)cc1
3. CC(C)(C)c1ccc(-c2cc(Nc3ccc4cccnc4c3)ncn2)cc1
Input: Rank descending by IC50. Respond with the label ranking, as requested.
Output: 1, 2, 3
(1: 840 nM, 2: 430 nM, 3: 2 nM)

----------
molecular target: Transient receptor potential cation channel subfamily V member 1 (Homo sapiens, UniProt Q8NER1); experiment: Antagonist activity at human TRPV1 expressed in CHO cells assessed as inhibition of acid-induced calcium influx; format: functional, cell-based
Sequence (Q8NER1 whole entry): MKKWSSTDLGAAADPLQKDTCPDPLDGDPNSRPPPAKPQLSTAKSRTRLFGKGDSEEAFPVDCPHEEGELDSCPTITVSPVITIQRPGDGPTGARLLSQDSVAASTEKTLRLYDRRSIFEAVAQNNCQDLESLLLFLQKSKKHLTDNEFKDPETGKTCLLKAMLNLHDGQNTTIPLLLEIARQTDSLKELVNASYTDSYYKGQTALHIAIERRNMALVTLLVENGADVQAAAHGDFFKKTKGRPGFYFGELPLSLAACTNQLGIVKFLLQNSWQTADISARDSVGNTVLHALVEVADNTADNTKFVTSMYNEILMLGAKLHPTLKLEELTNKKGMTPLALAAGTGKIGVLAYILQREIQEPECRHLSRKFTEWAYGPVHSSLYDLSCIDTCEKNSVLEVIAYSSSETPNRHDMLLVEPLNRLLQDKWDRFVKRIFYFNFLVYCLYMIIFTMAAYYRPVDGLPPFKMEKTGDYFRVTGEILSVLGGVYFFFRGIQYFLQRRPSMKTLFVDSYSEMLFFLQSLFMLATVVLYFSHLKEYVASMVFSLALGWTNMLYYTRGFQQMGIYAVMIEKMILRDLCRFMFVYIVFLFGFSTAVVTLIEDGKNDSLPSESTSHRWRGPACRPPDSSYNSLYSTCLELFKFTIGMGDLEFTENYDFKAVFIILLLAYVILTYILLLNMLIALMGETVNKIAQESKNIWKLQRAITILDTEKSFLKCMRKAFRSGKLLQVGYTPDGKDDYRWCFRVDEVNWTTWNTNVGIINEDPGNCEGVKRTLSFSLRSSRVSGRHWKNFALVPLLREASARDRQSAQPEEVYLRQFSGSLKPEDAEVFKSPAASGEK
Property measured: IC50 (nM)

// solved cases for IC50 follow
| Sample smiles | Property measured | Observed measurement |
| --- | --- | --- |
| FC(F)(F)c1ccc(-c2cc(Nc3ccc4cccnc4c3)ncn2)cc1 | IC50 | 0.3 |
| CC(C)(C)c1ccc(-c2cc(Nc3ccc4c(c3)OCCO4)ncn2)cc1 | IC50 | 270 |

P. FC(F)(F)c1ccc(-c2cc(Nc3ccc4c(c3)OCCO4)ncn2)cc1
Q. CC(C)(C)c1ccc(-c2cc(Nc3ccc4cccnc4c3)ncn2)cc1
R. FC(F)(F)c1ccc(-c2cc(Oc3ccc4cccnc4c3)ncn2)cc1
Input: Which order do these items take when sorted by rising IC50? List them. Reply with the item labels sorted in the order that was asked for.
Output: R, Q, P

Data provenance: ChEMBL document CHEMBL1145458
